Conditions: 313.15 K; 101 kPa; Liquid
metric: mass density (kg/m3)
Expressed in kg/m3, but write only the number.

CCOC(=O)CCl [ethyl chloroethanoate]
1125.9

Look up and state reported mass density for CCOC(C)=O [ethyl acetate]
875.9

Look up and state reported mass density for CCOC(=O)CC#N [ethyl cyanoacetate]
1040.8

Look up and state reported mass density for N#CCc1ccccc1
999.5

* * *

Settings: 303.15 K; 101 kPa; Liquid; Pulse-echo method
Listed below: speed of sound values for each entry.
Expressed in m/s, but write only the number.

Worked set:
CCOC(C)=O [ethyl acetate]
1118.5
CCOC(=O)CC#N [ethyl cyanoacetate]
1396.9
N#CCc1ccccc1 [benzeneacetonitrile]
1519.2

# evaluate next
Look up and state reported speed of sound for CCOC(=O)CCl [ethyl chloroethanoate]
1229.4

* * *

Details: 303.15 K; 101 kPa; Liquid
metric: mass density (kg/m3)
Expressed in kg/m3, but write only the number.

Worked set:
CCOC(=O)CCl [ethyl chloroethanoate]
1139.3
N#CCc1ccccc1 [benzeneacetonitrile]
1008.8
CCOC(=O)CC#N [ethyl cyanoacetate]
1051.4

Look up and state reported mass density for CCOC(C)=O [ethyl acetate]
888.9

* * *

Conditions: 308.15 K; 101 kPa; Liquid; Pulse-echo method
metric: speed of sound (m/s)
Expressed in m/s, but write only the number.

CCOC(=O)CCl [ethyl chloroethanoate]
1212.4

Look up and state reported speed of sound for CCOC(=O)CC#N [ethyl cyanoacetate]
1384.8

Look up and state reported speed of sound for CCOC(C)=O [ethyl acetate]
1097.8

Look up and state reported speed of sound for N#CCc1ccccc1
1512.9

* * *

Details: 308.15 K; 101 kPa; Liquid; Capillary tube (Ostwald / Ubbelohde) method
metric: viscosity (mPa·s)
Expressed in mPa·s, but write only the number.

Worked set:
CCOC(C)=O [ethyl acetate]
0.361
CCOC(=O)CC#N [ethyl cyanoacetate]
1.962
N#CCc1ccccc1 [benzeneacetonitrile]
1.602

# evaluate next
Look up and state reported viscosity for CCOC(=O)CCl [ethyl chloroethanoate]
0.8979

* * *

Settings: 308.15 K; 101 kPa; Liquid
Listed below: mass density values for each entry.
Expressed in kg/m3, but write only the number.

Worked set:
CCOC(=O)CCl [ethyl chloroethanoate]
1132.5
CCOC(C)=O [ethyl acetate]
882.6
N#CCc1ccccc1
1004.1

Look up and state reported mass density for CCOC(=O)CC#N [ethyl cyanoacetate]
1046.5

* * *

Listed below: viscosity values for each entry.
Settings: 303.15 K; 101 kPa; Liquid; Capillary tube (Ostwald / Ubbelohde) method
Numbers after ± are expanded uncertainties.
Kindly report the value followed by its unit.

Worked set:
CCOC(C)=O [ethyl acetate]
0.379 ± 0.01 mPa·s
CCOC(=O)CC#N [ethyl cyanoacetate]
2.186 ± 0.027 mPa·s
CCOC(=O)CCl [ethyl chloroethanoate]
0.9692 ± 0.012 mPa·s

Look up and state reported viscosity for N#CCc1ccccc1 [benzeneacetonitrile]
1.761 ± 0.016 mPa·s
